Just for reference, ChEMBL document CHEMBL1201862 is where these values come from.

system: NCI-H23; test: NCI tumour cell line growth inhibition, 48 h
Activity calls are given as the source filed them. Cut-off read from the data, not from the text of the source: active = GI50 up to about 1.1 µM and inactive = higher.
Measured GI50 values are reported for all entries that follow.

compound | observed-property | value-measured
C=CCCCCn1c2ccccc2c2c(C)c3cnccc3c(C)c21 | GI50 | 4.63 µM (inactive)
Cn1c2c(c3ccccc31)CCN(CCCCN1CCN(c3cccc(Cl)c3)CC1)C2=O | GI50 | 12.6 µM (inactive)
C=C1C[C@]23CCC4C(C)(C)C(=O)CC[C@]4(C)C2C[C@H]1C(O)C3=O (stereo not given in full) | GI50 | > 75 µM (inactive)
CCN(CC)CCc1c2c(nc3ccccc13)C(=O)c1cccnc1C2=O | GI50 | 3.08 µM (inactive)
CN(CCNC(=O)c1nn(-c2ccc(Cl)cc2Cl)c2c1Cc1ccccc1-2)CCNC(=O)c1nn(-c2ccc(Cl)cc2Cl)c2c1Cc1ccccc1-2 | GI50 | 5.09 µM (inactive)
COC1CC(OS(=O)(=O)c2ccc(C)cc2)C(OC(=O)c2ccccc2)C(C)O1 (stereo not given) | GI50 | > 10 µM (inactive)
Cn1cc(C(=O)c2ccccc2)ccc1=O | GI50 | > 100 µM (inactive)
C=C(C)C(=O)O[C@H]1[C@H]2[C@H](OC(=O)[C@H]2C)[C@H](O)[C@@H](C)[C@@H]2C=CC(=O)[C@]21C | GI50 | 3.71 µM (inactive)

Just so you know, measured GI50 for Cn1c(-c2cccc(N)c2)[n+](C)c2ccccc21 came out at 48.3 µM (inactive)

Just so you know, measured GI50 for O=c1cc(N2CCOCC2)n2c(ccc3ccccc32)n1 came out at > 100 µM (inactive)

---

test system: LXFL 529; assay: NCI tumour cell line growth inhibition, 48 h
Active and inactive are the calls of the source. No stated cut-off is given here; in the data, active = GI50 up to about 1.1 µM and inactive = higher.
In this exercise, the only acceptable responses are active, inactive

Below, 3 compounds whose answers are already recorded.
compound | class-label
C/C=C/C=N/N(c1nnc(-c2ccccc2)c(-c2ccccc2)n1)S(=O)(=O)c1ccc(C)cc1 | inactive
O=C(Nc1cc(C(F)(F)F)ccc1Cl)C(=O)C(C(=O)c1ccc2ccccc2c1)C1OC(=O)c2ccccc21 (stereo not drawn) | inactive
CC(C)=C1CCC(CN(C)C)C1=O (stereo not drawn) | inactive

Q: Give the logged outcome of this assay for the following compound: Cc1cc2cc(Cl)ccc2nc1C(=O)c1ccccc1
A: inactive

Q: Give the logged outcome of this assay for the following compound: O=C(/C=C/c1c(O)ccc2ccccc12)c1ccccc1
A: inactive

---

test system: NCI-H460; assay: NCI tumour cell line growth inhibition, 48 h
Calls of active or inactive are those of the source. Cut-off read from the data, not from the text of the source: active = GI50 up to about 1.1 µM and inactive = higher.
In this exercise, the only acceptable responses are active, inactive

Q: Give the logged outcome of this assay for the following compound: O=C(/C=c1\oc(=O)/c(=C/C(=O)c2ccc(Cl)cc2)oc1=O)c1ccc(Cl)cc1
A: inactive

Q: Give the logged outcome of this assay for the following compound: COCCOc1nc(-c2ccccc2)nc2ccccc12
A: inactive

Q: Give the logged outcome of this assay for the following compound: CC(=O)N1OC(C)CC1Nc1ccc(Br)cc1 (centres undefined)
A: inactive

Q: Give the logged outcome of this assay for the following compound: Cn1c(=O)c2c(nc(Cc3ccccc3)n2CC(=O)O)n(C)c1=O
A: inactive

---

tested on: SK-MEL-28; assay: NCI tumour cell line growth inhibition, 48 h
Activity calls are given as the source filed them. No stated cut-off is given here; in the data, active = GI50 up to about 1.1 µM and inactive = higher.
observed-property: GI50

compound | GI50
C[C@]12CC[C@H]3[C@@H](CCC4=CC(=O)C=C[C@@]43OC(=O)C(F)(F)F)[C@@H]1CCC2=O | > 100 µM (inactive)
O=C(c1ccccc1)c1ccc2[nH]c(-c3c(Cl)c(Cl)c(Cl)c(Cl)c3-c3nnc(-c4ccccc4)o3)nc2c1 | > 100 µM (inactive)
Cc1cc2nc3c(C#N)c4c(c(Cl)n3c2cc1C)CCC4 | 29.2 µM (inactive)
Cc1cc(=O)oc2c(CNC(CC(C)C)C(=O)O)c(O)ccc12 (centres undefined) | > 100 µM (inactive)
COP(=O)(OC)/C(=C/c1c[nH]c2ccccc12)C(=O)O | > 100 µM (inactive)
CCCCCCCc1cc(OC(=O)c2c(C)cc(OC)cc2O)cc(O)c1C(=O)O | 20.1 µM (inactive)

Test item OC1C2[C@@H](O)CCCN2C[C@@H](O)[C@H]1O (some centres undefined) ; SK-MEL-28; reported GI50 was > 100 µM (inactive)

Test item O=S(=O)(c1ccccc1)N1CN2CN(C1)CN(S(=O)(=O)c1ccccc1)C2 ; SK-MEL-28; reported GI50 was > 100 µM (inactive)

Test item N/C(S)=N/N=C/c1ccc(O)cn1 ; SK-MEL-28; reported GI50 was 30.1 µM (inactive)
